System: Ehrlich
ASSAY NOTES: Antitumor activity against mouse EAC allografted in CF1 mouse assessed as tumor volume at 33 mg/kg/day measured on day 7
Format: functional
Rule: Met for Activity not less than 1 mL, Not met for anything less.

- MOLECULE: "O=C(/C=C/c1ccccc1)N[C@@H](Cc1ccccc1)C(=O)O"
  MEASURED TARGET: "Ehrlich"
  ASSIGNED LABEL: "Met"
- MOLECULE: "Cl.N#CCOC(=O)[C@@H](N)Cc1ccccc1"
  MEASURED TARGET: "Ehrlich"
  ASSIGNED LABEL: "Met"
- MOLECULE: "O=C(N[C@@H](Cc1ccccc1)C(=O)OC(Cl)CCl)OCc1ccccc1 (some centres not stated)"
  MEASURED TARGET: "Ehrlich"
  ASSIGNED LABEL: "Not met"
- MOLECULE: "C=COC(=O)[C@H](Cc1ccccc1)NC(=O)OCc1ccccc1"
  MEASURED TARGET: "Ehrlich"
  ASSIGNED LABEL: "Not met"
- MOLECULE: "O=C(N[C@H](Cc1ccccc1)C(=O)O)OCc1ccccc1"
  MEASURED TARGET: "Ehrlich"
  ASSIGNED LABEL: "Met"
- MOLECULE: "C#CCOC(=O)[C@H](Cc1ccccc1)NC(=O)OCc1ccccc1"
  MEASURED TARGET: "Ehrlich"
  ASSIGNED LABEL: "Met"
- MOLECULE: "O=C(N[C@@H](Cc1ccccc1)C(=O)N[C@@H](Cc1ccccc1)C(=O)OC(Br)CBr)OCc1ccccc1 (some centres not stated)"
  MEASURED TARGET: "Ehrlich"
  ASSIGNED LABEL: "Not met"
- MOLECULE: "Cc1ccc(S(=O)(=O)N[C@@H](Cc2ccccc2)C(=O)OCC#N)cc1"
  MEASURED TARGET: "Ehrlich"
  ASSIGNED LABEL: "Not met"
- MOLECULE: "C=COC(=O)[C@@H](Cc1ccccc1)NC(=O)OCc1ccccc1"
  MEASURED TARGET: "Ehrlich"
  ASSIGNED LABEL: "Met"
- MOLECULE: "C=CCOC(=O)[C@H](Cc1ccccc1)NC(=O)OCc1ccccc1"
  MEASURED TARGET: "Ehrlich"
  ASSIGNED LABEL: "Met"
- MOLECULE: "C=COC(=O)C(Cc1ccccc1)NC(=O)OCc1ccccc1 (racemic)"
  MEASURED TARGET: "Ehrlich"
  ASSIGNED LABEL: "Met"
- MOLECULE: "CCOC(=O)[C@H](Cc1ccccc1)NC(=O)OCc1ccccc1"
  MEASURED TARGET: "Ehrlich"
  ASSIGNED LABEL: "Met"
- MOLECULE: "C=COC[C@H](Cc1ccccc1)NC(=O)OCc1ccccc1"
  MEASURED TARGET: "Ehrlich"
  ASSIGNED LABEL: "Met"
- MOLECULE: "Cc1ccc(S(=O)(=O)N[C@@H](Cc2ccccc2)C(=O)C(=O)CCl)cc1"
  MEASURED TARGET: "Ehrlich"
  ASSIGNED LABEL: "Not met"
- MOLECULE: "C=COC(=O)[C@H](Cc1ccccc1)NC(=O)[C@H](Cc1ccccc1)NC(=O)OCc1ccccc1"
  MEASURED TARGET: "Ehrlich"
  ASSIGNED LABEL: "Met"
- MOLECULE: "C=COC(=O)[C@H](Cc1ccccc1)NS(=O)(=O)c1ccc(C)cc1"
  MEASURED TARGET: "Ehrlich"
  ASSIGNED LABEL: "Met"
- MOLECULE: "O=C(NC(Cc1ccccc1)C(=O)O)OCc1ccccc1 (racemic)"
  MEASURED TARGET: "Ehrlich"
  ASSIGNED LABEL: "Met"
- MOLECULE: "O=C(N[C@@H](Cc1ccccc1)C(=O)O)c1ccccc1"
  MEASURED TARGET: "Ehrlich"
  ASSIGNED LABEL: "Met"
- MOLECULE: "CCOC(=O)[C@H](Cc1ccccc1)NC(=O)/C=C/c1ccccc1"
  MEASURED TARGET: "Ehrlich"
  ASSIGNED LABEL: "Met"
- MOLECULE: "N[C@H](CO)Cc1ccccc1"
  MEASURED TARGET: "Ehrlich"
  ASSIGNED LABEL: "Not met"
- MOLECULE: "N#CCOC(=O)[C@H](Cc1ccccc1)NC(=O)[C@H](Cc1ccccc1)NC(=O)OCc1ccccc1"
  MEASURED TARGET: "Ehrlich"
  ASSIGNED LABEL: "Met"
